These data points were gathered from paper PMC6212790.

Provide the reported binding signal of each item.
ASSAYED SYSTEM: GST-Rok-C97-191 (Bacillus subtilis subsp. subtilis str. …, UniProt O34857 97-191)
Sequence: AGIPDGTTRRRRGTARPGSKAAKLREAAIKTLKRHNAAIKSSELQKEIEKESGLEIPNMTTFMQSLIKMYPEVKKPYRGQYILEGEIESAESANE
ASSAY OVERVIEW: protein binding microarray; high values mean tight binding
CONDITION DETAILS: protein: recombinant; tags: GST (pTH5325, pDEST15-Magic modified); dsDNA, one strand shown
Whole data set: some 33,000 sequences, median “e-score” near -0.038, cut for the highest 2% near 0.33. The sample holds the highest values, similar sequences and a random draw of the others, so the mix is not that of the screen.
One number for each entry, in E-score.

// solved cases for binding signal follow
{"QUERY SEQUENCE": "ATTATATG", "ASSAYED SYSTEM": "GST-Rok-C97-191 (Bacillus subtilis subsp. subtilis str. …, UniProt O34857 97-191)", "UNIT SYMBOL": "E-score", "binding signal": 0.223}
{"QUERY SEQUENCE": "CTTATATC", "ASSAYED SYSTEM": "GST-Rok-C97-191 (Bacillus subtilis subsp. subtilis str. …, UniProt O34857 97-191)", "UNIT SYMBOL": "E-score", "binding signal": 0.117}
{"QUERY SEQUENCE": "GACTAGGA", "ASSAYED SYSTEM": "GST-Rok-C97-191 (Bacillus subtilis subsp. subtilis str. …, UniProt O34857 97-191)", "UNIT SYMBOL": "E-score", "binding signal": -0.0139}

Here is the next item to consider.
Q. Determine its reported binding signal: CTGGGAAA
A. -0.136

###

Task for the reader: assign each of the following sequences its reported binding signal.
ASSAYED SYSTEM: GST-Rok-C97-191 (Bacillus subtilis subsp. subtilis str. …, UniProt O34857 97-191)
Sequence: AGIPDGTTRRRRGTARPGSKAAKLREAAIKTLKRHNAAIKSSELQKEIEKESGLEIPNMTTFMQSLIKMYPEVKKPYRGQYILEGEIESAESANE
ASSAY OVERVIEW: protein binding microarray; Rok is a gene silencer of Bacillus subtilis; high values mean tight binding
CONDITION DETAILS: protein: recombinant; tags: GST (pTH5325, pDEST15-Magic modified); dsDNA, one strand shown
The full ranking holds about 33,000 sequences; the median of “e-score” is about -0.038, and the highest 2% start at about 0.33. The entries come from a sample that favours the highest values as a whole.

Worked cases, answers included:
{"QUERY SEQUENCE": "TGCCTAAA", "RESULT": "-0.0357 E-score"}
{"QUERY SEQUENCE": "TTATAAAA", "RESULT": "0.218 E-score"}
{"QUERY SEQUENCE": "GGACTATA", "RESULT": "0.0884 E-score"}
{"QUERY SEQUENCE": "CGATGACC", "RESULT": "-0.125 E-score"}
{"QUERY SEQUENCE": "GCAAACTA", "RESULT": "0.385 E-score"}
{"QUERY SEQUENCE": "AGTAGAAT", "RESULT": "0.422 E-score"}

Please report binding signal for every entry that follows.
1. ACTCTACT
2. CCAAACTC
3. AAATACTA
4. CTACCACA

A.
1: 0.273 E-score; 2: -0.0249 E-score; 3: 0.434 E-score; 4: 0.343 E-score

Report binding signal for each item below.
1. AGAATATA
2. ACGGGTAG
3. AATACATA
4. AATCTACC
5. GCAAACAA
6. GTATAAAC
7. CGACCAAC

A.
0.231 E-score
0.0714 E-score
0.308 E-score
0.447 E-score
-0.173 E-score
0.137 E-score
-0.152 E-score

Please report binding signal for every entry that follows.
1. AGATAGAA
2. AGTAGAGA
3. CATATTGC
4. CCTTTTCC
5. TACTGGCA
6. ATACCACG

A.
["0.308 E-score", "0.206 E-score", "0.0992 E-score", "-0.198 E-score", "0.0047 E-score", "0.0833 E-score"]

Batch request: binding signal per item, same order as input.
1. CGCAAAGA
2. CTATTACC
3. ATATTATG
4. CTACTTTA
5. TACAATAA
6. CTATAAAA

A.
-0.193 E-score
0.312 E-score
0.0424 E-score
0.337 E-score
0.108 E-score
0.229 E-score
